# Tested on: Mycobacterium tuberculosis
# assay remarks: Antimycobacterial activity against Mycobacterium tuberculosis H37Rv
# Assay type: functional
Exercise: for every item that follows, state its recorded MIC.
Answer in µM, number only, no unit symbol.

Challenge: // returns reported MIC for input O=C(NC12CC3CC(CC(C3)C1)C2)c1cc2cc(Cl)ccc2[nH]1
Response given: 0.47

Challenge: // returns reported MIC for input Cc1cccc(-c2nc(Nc3ccncn3)c3c(C)csc3n2)n1
Response given: 0.76

Challenge: // returns reported MIC for input c1cc2c(s1)CCOC21CCN(Cc2ccc3c(c2)OCCO3)CC1
Response given: 0.38

Challenge: // returns reported MIC for input Cc1ccc2nc(C)c(C(=O)NCc3cccs3)n2c1
Response given: 0.19

Challenge: // returns reported MIC for input COc1ccc2nc(C)cc(OCC(=O)Nc3ccccc3OC)c2c1
Response given: 0.7
